OD450 nm for assorted binders
# test_target: T1, biotinylated hBLyS-ECD (human, UniProt Q9Y275 134-285, biotinylated with Biotin-X-X-NHS (molar ratio 7:1); sites not stated)
# T1 construct: also called biotinylated immunogen; biotinylated hBLvS-ECD
# T1 sequence (Q9Y275 134-285): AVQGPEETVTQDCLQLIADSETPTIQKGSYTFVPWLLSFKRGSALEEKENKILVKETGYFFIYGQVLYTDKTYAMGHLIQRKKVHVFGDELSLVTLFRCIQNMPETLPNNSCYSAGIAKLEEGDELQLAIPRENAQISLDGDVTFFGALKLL
# protocol: ELISA on captured biotinylated hBLyS-ECD; antibody 0.00427 nM
Answer as a quantity: numeral, then unit.

Worked cases, answers included:
c111D10D6G3 (antibody, V domains shown) VH: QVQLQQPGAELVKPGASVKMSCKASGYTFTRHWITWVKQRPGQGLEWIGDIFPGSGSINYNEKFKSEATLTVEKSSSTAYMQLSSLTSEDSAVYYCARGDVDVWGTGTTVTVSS VL: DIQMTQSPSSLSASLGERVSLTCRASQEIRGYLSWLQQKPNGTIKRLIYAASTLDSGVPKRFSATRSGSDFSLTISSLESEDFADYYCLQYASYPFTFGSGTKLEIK :: 0.222 OD450 nm
c97A3C2H4 (antibody, V domains shown, also called chimeric antibody c97A3C2H4) VH: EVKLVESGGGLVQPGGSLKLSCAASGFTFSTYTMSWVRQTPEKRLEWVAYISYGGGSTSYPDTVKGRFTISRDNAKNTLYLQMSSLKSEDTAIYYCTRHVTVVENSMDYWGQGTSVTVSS VL: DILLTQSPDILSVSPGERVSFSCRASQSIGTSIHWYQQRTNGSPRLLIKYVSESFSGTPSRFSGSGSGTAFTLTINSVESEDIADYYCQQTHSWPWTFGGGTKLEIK :: 0.25 OD450 nm
c67A2E1D10 (antibody, V domains shown) VH: EVQLQQSGAELVKPGASVKLSCTASGFNIKNYYMHWVKQRTEEGLEWIGRIDPEDGETKYAPKFQAKATITADTSSNTAYLQLSSLTSEDTAVYFCARKGYYGNYGAWFAYWGQGTLVTVSA VL: DIQMTQSPASLSVSVGETVTITCRASEDLYSNLAWYQQKQGKSPQLLVYAATFLADGVPSRFSGSGSGTQYSLKINSLQSEDFGNYYCQHFWGTPPTFGGGTKLEIK :: 0.143 OD450 nm

Then there is this binder:
Notebook: c8E7D9C7F5 (antibody, V domains shown, also called chimeric antibody c8E7D9C7F5) VH: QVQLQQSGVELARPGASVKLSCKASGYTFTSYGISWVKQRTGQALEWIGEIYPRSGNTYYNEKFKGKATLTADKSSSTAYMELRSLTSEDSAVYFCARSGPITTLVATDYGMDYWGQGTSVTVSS VL: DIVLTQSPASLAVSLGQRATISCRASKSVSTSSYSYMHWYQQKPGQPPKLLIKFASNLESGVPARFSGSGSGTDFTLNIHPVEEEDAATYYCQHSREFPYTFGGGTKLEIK , OD450 nm read as 0.176 OD450 nm
